Biological target: T1, MUC1 (Mucin-1) as expressed by human cancer cell lines (human, UniProt P15941 24-1255)
T1 construct: whole, on cells; Endogenous antigen on the cell surface (flow cytometry) or in cell lysates (immunoprecipitation, western blot); also called MUC1 antigen; antigen recognized by the MP1 monoclonal antibody
T1 sequence (P15941 24-1255): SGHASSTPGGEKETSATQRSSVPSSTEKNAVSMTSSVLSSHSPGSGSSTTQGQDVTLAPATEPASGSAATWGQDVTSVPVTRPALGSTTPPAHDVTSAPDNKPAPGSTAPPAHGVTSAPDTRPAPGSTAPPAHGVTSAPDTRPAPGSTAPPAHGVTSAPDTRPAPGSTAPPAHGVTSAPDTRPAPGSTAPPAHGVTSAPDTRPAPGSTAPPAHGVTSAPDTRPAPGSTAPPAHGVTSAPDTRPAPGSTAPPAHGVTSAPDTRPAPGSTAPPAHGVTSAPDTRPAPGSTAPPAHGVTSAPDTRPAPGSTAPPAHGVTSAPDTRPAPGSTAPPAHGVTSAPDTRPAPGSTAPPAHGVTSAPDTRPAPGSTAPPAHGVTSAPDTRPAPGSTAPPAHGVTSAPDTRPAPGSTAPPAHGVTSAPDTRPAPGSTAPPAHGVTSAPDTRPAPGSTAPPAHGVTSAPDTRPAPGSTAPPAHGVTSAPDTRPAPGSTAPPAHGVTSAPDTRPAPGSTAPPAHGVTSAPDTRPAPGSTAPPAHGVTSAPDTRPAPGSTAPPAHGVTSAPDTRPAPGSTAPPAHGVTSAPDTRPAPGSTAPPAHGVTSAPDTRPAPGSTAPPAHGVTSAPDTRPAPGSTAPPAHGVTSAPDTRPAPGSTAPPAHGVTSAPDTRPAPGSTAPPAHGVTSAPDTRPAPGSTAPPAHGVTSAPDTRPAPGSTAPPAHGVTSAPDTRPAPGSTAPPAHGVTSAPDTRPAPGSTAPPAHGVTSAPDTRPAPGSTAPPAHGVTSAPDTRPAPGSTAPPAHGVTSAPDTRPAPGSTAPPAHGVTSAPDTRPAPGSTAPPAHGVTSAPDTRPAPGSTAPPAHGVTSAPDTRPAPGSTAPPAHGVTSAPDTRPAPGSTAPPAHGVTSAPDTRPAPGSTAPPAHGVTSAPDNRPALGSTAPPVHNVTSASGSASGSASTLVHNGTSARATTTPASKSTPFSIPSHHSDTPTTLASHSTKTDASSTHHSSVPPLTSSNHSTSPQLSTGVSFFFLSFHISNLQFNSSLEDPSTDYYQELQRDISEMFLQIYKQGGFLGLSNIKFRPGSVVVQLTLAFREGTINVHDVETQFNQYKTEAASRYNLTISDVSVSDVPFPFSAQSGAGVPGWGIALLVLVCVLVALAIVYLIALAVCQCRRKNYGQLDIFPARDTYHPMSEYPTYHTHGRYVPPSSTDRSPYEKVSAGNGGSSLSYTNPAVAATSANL
Assay: flow cytometry, Capan-2 cells stained with transient-expression culture solution; positive rate against the negative control
measured metric: Capan-2 cell surface binding (%)

>  <binder>
humanized MP1 antibody VH8/VL4 (antibody, V domains shown, tested as ExpiCHO-S culture solution) VH: QVQLVESGGGVVQPGRSLRLSCAASGITFSSYWMNWVRQAPGKGLEWVAQIRNKPYNYEKYYAQSVKGRFTISRDDSKSTLYLQMSSLRAEDTAVYYCAWAMITSDGYAMDYWGQGTLVTVSS VL: EIVMTQSPGTLSLSPGERATLSCRSSQSLLLSSNQKNYLAWYQQKPGQAPRLLIYWASTRESGIPDRFSGSGSGTDFTLTISRVEPEDFAVYYCQQCFSYPLTFGQGTKLEIK

>  <measured metric>
Capan-2 cell surface binding (%)

>  <measured number>
15.6

$$$$
>  <binder>
humanized MP1 antibody VH7/VL5 (antibody, V domains shown, tested as ExpiCHO-S culture solution) VH: QVKVVESGGGVVQPGRSLRLSCAASGITFSDYWMNWVRQAPGKGLEWVAQIRNKPYNYETYYSNSVKGRFTISRDDSKSTVYLQMSSLRAEDTAVYYCTWAMITSDGYAMDYWGQGTLVTVSS VL: EIVLTQSPGTLSLSPGERATLSCRASQSVLLSSNQKNYLAWYQQKPGQAPRLLIYWASSRETGIPDRFSGSGSGTDFTLTISRLEPEDFAVYYCQQSFSYPLTFGQGTKLEIK

>  <measured metric>
Capan-2 cell surface binding (%)

>  <measured number>
10.2

$$$$
>  <binder>
humanized MP1 antibody VH4/VL5 (antibody, V domains shown, tested as ExpiCHO-S culture solution) VH: EVKVVESGGGLVQPGGSLRLSCAASGITFSDYWMNWVRQAPGKGLEWVAQIRNKPYNYETYYSNSVKGRFTISRDDAKSSVYLQMSSLRAEDTAVYYCTWAMITSDGYAMDYWGQGTLVTVSS VL: EIVLTQSPGTLSLSPGERATLSCRASQSVLLSSNQKNYLAWYQQKPGQAPRLLIYWASSRETGIPDRFSGSGSGTDFTLTISRLEPEDFAVYYCQQSFSYPLTFGQGTKLEIK

>  <measured metric>
Capan-2 cell surface binding (%)

>  <measured number>
16.9

$$$$
